# System: Staphylococcus aureus
Entries and their MIC values follow.
ASSAY ENDPOINT: MIC (µM)

{"ENTRY SMILES": "CC(C)[C@H](NC(=O)CNC(=O)[C@@H](N)Cc1cnc[nH]1)C(=O)N[C@@H](CO)C(=O)NCC(=O)N[C@@H](Cc1cnc[nH]1)C(=O)NCC(=O)N[C@@H](CCC(N)=O)C(=O)N[C@@H](Cc1cnc[nH]1)C(=O)NCC(=O)N[C@H](C(=O)N[C@@H](Cc1cnc[nH]1)C(=O)NCC(=O)O)[C@@H](C)O", "VALUE RELATION SIGN": "=", "NUMBER": 12.6}
{"ENTRY SMILES": "CC[C@H](C)[C@H](NC(=O)[C@H](C)NC(=O)CNC(=O)[C@H](Cc1c[nH]c2ccccc12)NC(=O)[C@H](CC(N)=O)NC(=O)[C@@H](N)CC(C)C)C(=O)N[C@@H](CC(C)C)C(=O)N[C@@H](CCCCN)C(=O)N[C@@H](Cc1cnc[nH]1)C(=O)N[C@H](C(=O)N[C@H](C(=O)N[C@@H](CCCCN)C(N)=O)[C@@H](C)CC)[C@@H](C)CC", "VALUE RELATION SIGN": "=", "NUMBER": 10.6}
{"ENTRY SMILES": "NC(N)=NCCC[C@H](NC(=O)[C@H](CCCN=C(N)N)NC(=O)[C@H](CCCN=C(N)N)NC(=O)[C@H](CCCN=C(N)N)NC(=O)[C@H](CCCN=C(N)N)NC(=O)[C@H](CCCN=C(N)N)NC(=O)[C@H](CCCN=C(N)N)NC(=O)[C@H](CCCN=C(N)N)NC(=O)[C@H](Cc1c[nH]c2ccccc12)NC(=O)[C@H](Cc1c[nH]c2ccccc12)NC(=O)[C@H](Cc1c[nH]c2ccccc12)NC(=O)[C@@H](N)Cc1c[nH]c2ccccc12)C(=O)O", "VALUE RELATION SIGN": "=", "NUMBER": 4.47}
{"ENTRY SMILES": "CC[C@H](C)[C@H](NC(=O)[C@H](CCCCN)NC(=O)[C@H](CO)NC(=O)[C@H](Cc1ccccc1)NC(=O)[C@H](CO)NC(=O)[C@H](CCCCN)NC(=O)[C@H](CCC(=O)O)NC(=O)[C@H](CC(C)C)NC(=O)[C@H](CCCN=C(N)N)NC(=O)[C@H](CCCCN)NC(=O)[C@H](Cc1ccccc1)NC(=O)[C@@H](NC(=O)[C@H](CCCCN)NC(=O)[C@H](CCCCN)NC(=O)[C@H](C)N)C(C)C)C(=O)N[C@@H](CCC(N)=O)C(=O)N[C@@H](CC(N)=O)C(=O)N[C@@H](CC(=O)O)C(=O)N[C@@H](CCCCN)C(N)=O", "VALUE RELATION SIGN": ">", "NUMBER": 12.5}
{"ENTRY SMILES": "CC[C@H](C)[C@H](NC(=O)[C@H](C)NC(=O)[C@H](CO)NC(=O)[C@@H](NC(=O)[C@@H](N)Cc1ccccc1)[C@@H](C)CC)C(=O)N[C@@H](C)C(=O)N[C@@H](CO)C(=O)N[C@@H](Cc1ccccc1)C(=O)N[C@@H](CC(C)C)C(=O)NCC(=O)N[C@@H](CCCCN)C(=O)N[C@@H](Cc1ccccc1)C(=O)N[C@@H](CC(C)C)C(=O)O", "VALUE RELATION SIGN": "=", "NUMBER": 130}
